I'd appreciate it if you could supply viability, T/C values for the items below.
- Test system: 855422-203-R-J1-PDC complex spheroid viability
- assay-info: Anticancer human tumor 855422-203-R-J1-PDC patient-derived bladder carcinoma cell line growth inhibition [POLQ]
- assay-context: second compound 0.1 µM; first compound 3.16 µM; active compounds read low
Give just the number in %; leave the unit off.

Task: viability, T/C lookup needed for C=CC(=O)N1CCN(c2nc(=O)n(-c3c(C)ccnc3C(C)C)c3nc(-c4c(O)cccc4F)c(F)cc23)C(C)C1 (stereo not given) + Nc1ccc(C#CCN(C(=O)Cc2ncc(C(F)(F)F)cc2C(F)(F)F)c2ccc(F)cc2)nn1 , thanks.
Result: 159

Task: viability, T/C lookup needed for CCCS(=O)(=O)Nc1ccc(F)c(C(=O)c2c[nH]c3ncc(-c4ccc(Cl)cc4)cc23)c1F + Nc1ccc(C#CCN(C(=O)Cc2ncc(C(F)(F)F)cc2C(F)(F)F)c2ccc(F)cc2)nn1 , thanks.
Result: 103

Task: viability, T/C lookup needed for CC1COCCN1c1cc(C2(O)CC3CCC(C2)O3)c2cnn(-c3ccn[nH]3)c2n1 (stereo not given) + Nc1ccc(C#CCN(C(=O)Cc2ncc(C(F)(F)F)cc2C(F)(F)F)c2ccc(F)cc2)nn1 , thanks.
Result: 11.2

Task: viability, T/C lookup needed for C=CC(=O)N1CCN(c2nc(=O)n(-c3c(C)ccnc3C(C)C)c3nc(-c4c(O)cccc4F)c(F)cc23)C(C)C1 (stereo not given) + Cc1cccc(N(C)C(=O)C2C(O)CCN2c2nc(C)cc(C(F)(F)F)c2C#N)c1 , thanks.
Result: 121

Task: viability, T/C lookup needed for O=C(c1cc(Cc2n[nH]c(=O)c3ccccc23)ccc1F)N1CCN(C(=O)C2CC2)CC1 + COC1C(OC(N)=O)C(O)C(Oc2ccc3c(O)c(NC(=O)c4ccc(O)c(CC=C(C)C)c4)c(=O)oc3c2C)OC1(C)C , thanks.
Result: 93.8

Task: viability, T/C lookup needed for COc1ccc([C@@H](O)c2cc(-c3ncnc4cc(N5CCOCC5)ccc34)c(F)cc2Cl)nn1 + Nc1ccc(C#CCN(C(=O)Cc2ncc(C(F)(F)F)cc2C(F)(F)F)c2ccc(F)cc2)nn1 , thanks.
Result: 106

Task: viability, T/C lookup needed for COc1cc(C2c3cc4c(cc3C(OC3OC5COC(C)OC5C(O)C3O)C3COC(=O)C23)OCO4)cc(OC)c1O (stereo not given) + Cc1cccc(N(C)C(=O)C2C(O)CCN2c2nc(C)cc(C(F)(F)F)c2C#N)c1 , thanks.
Result: 6.62

Task: viability, T/C lookup needed for CC1COCCN1c1cc(C2(S(C)(=N)=O)CC2)nc(-c2ccnc3[nH]ccc23)n1 (stereo not given) + Nc1ccc(C#CCN(C(=O)Cc2ncc(C(F)(F)F)cc2C(F)(F)F)c2ccc(F)cc2)nn1 , thanks.
Result: 57.6

Task: viability, T/C lookup needed for CC(C)n1c(=O)n(C)c2cnc3cc(F)c(-c4ccc(OCCCN5CCCCC5)nc4)cc3c21 + COC1C(OC(N)=O)C(O)C(Oc2ccc3c(O)c(NC(=O)c4ccc(O)c(CC=C(C)C)c4)c(=O)oc3c2C)OC1(C)C , thanks.
Result: 79.6

Task: viability, T/C lookup needed for CC1COCCN1c1cc(-c2ccnn2C)c2ccnc(-c3ccn[nH]3)c2n1 (stereo not given) + Cc1cccc(N(C)C(=O)C2C(O)CCN2c2nc(C)cc(C(F)(F)F)c2C#N)c1 , thanks.
Result: 8.23

----------
I'd appreciate it if you could supply viability, T/C values for the items below.
- Test system: 855422-203-R-J1-PDC complex spheroid viability
- assay-info: Anticancer human tumor 855422-203-R-J1-PDC cell line growth inhibition [POLQ];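 further: spheroids exposed to compounds for seven days before readout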
- assay-context: second compound 3.16 µM; first compound 1 µM; active compounds read low
Give just the number in %; leave the unit off.

Task: viability, T/C lookup needed for CCc1cc2c(N3CCc4c(cc(Cn5ccnc5)cc4-c4cn(C)nc4C(F)(F)F)C3=O)ccnc2c(OC)n1 + Cc1cccc(N(C)C(=O)C2C(O)CCN2c2nc(C)cc(C(F)(F)F)c2C#N)c1 , thanks.
Result: 115

Task: viability, T/C lookup needed for CCc1c2c(nc3ccc(O)cc13)-c1cc3c(c(=O)n1C2)COC(=O)[C@]3(O)CC + COC1C(OC(N)=O)C(O)C(Oc2ccc3c(O)c(NC(=O)c4ccc(O)c(CC=C(C)C)c4)c(=O)oc3c2C)OC1(C)C , thanks.
Result: 1.71

Task: viability, T/C lookup needed for C#Cc1c(F)ccc2cc(O)cc(-c3ncc4c(N5CC6CCC(C5)N6)nc(OCC56CCCN5CC(F)C6)nc4c3F)c12 (stereo not given) + Cc1cccc(N(C)C(=O)C2C(O)CCN2c2nc(C)cc(C(F)(F)F)c2C#N)c1 , thanks.
Result: 98.3

Task: viability, T/C lookup needed for C=CCn1c(=O)c2cnc(Nc3ccc(N4CCN(C)CC4)cc3)nc2n1-c1cccc(C(C)(C)O)n1 + Nc1ccc(C#CCN(C(=O)Cc2ncc(C(F)(F)F)cc2C(F)(F)F)c2ccc(F)cc2)nn1 , thanks.
Result: 198

Task: viability, T/C lookup needed for O=C(Nc1ccc(O)c(NS(=O)(=O)c2ccc(F)cc2)c1)c1ccc(-c2ccccc2)cc1 + Nc1ccc(C#CCN(C(=O)Cc2ncc(C(F)(F)F)cc2C(F)(F)F)c2ccc(F)cc2)nn1 , thanks.
Result: 96.3

Task: viability, T/C lookup needed for O=c1[nH]cc(F)c(=O)[nH]1 + Nc1ccc(C#CCN(C(=O)Cc2ncc(C(F)(F)F)cc2C(F)(F)F)c2ccc(F)cc2)nn1 , thanks.
Result: 60.6

Task: viability, T/C lookup needed for CC1COCCN1c1cc(-c2ccnn2C)c2ccnc(-c3ccn[nH]3)c2n1 (stereo not given) + Nc1ccc(C#CCN(C(=O)Cc2ncc(C(F)(F)F)cc2C(F)(F)F)c2ccc(F)cc2)nn1 , thanks.
Result: 15.1

Task: viability, T/C lookup needed for C=CC(=O)N1CCN(c2nc(=O)n(-c3c(C)ccnc3C(C)C)c3nc(-c4c(O)cccc4F)c(F)cc23)C(C)C1 (stereo not given) + COC1C(OC(N)=O)C(O)C(Oc2ccc3c(O)c(NC(=O)c4ccc(O)c(CC=C(C)C)c4)c(=O)oc3c2C)OC1(C)C , thanks.
Result: 113

Task: viability, T/C lookup needed for C=CC(=O)N1CCN(c2nc(=O)n(-c3c(C)ccnc3C(C)C)c3nc(-c4c(O)cccc4F)c(F)cc23)C(C)C1 (stereo not given) + Cc1cccc(N(C)C(=O)C2C(O)CCN2c2nc(C)cc(C(F)(F)F)c2C#N)c1 , thanks.
Result: 105

Task: viability, T/C lookup needed for O=C(Nc1ccc(O)c(NS(=O)(=O)c2ccc(F)cc2)c1)c1ccc(-c2ccccc2)cc1 + COC1C(OC(N)=O)C(O)C(Oc2ccc3c(O)c(NC(=O)c4ccc(O)c(CC=C(C)C)c4)c(=O)oc3c2C)OC1(C)C , thanks.
Result: 111

----------
- Tested on: 855422-203-R-J1-PDC complex spheroid viability
- assay-info: Anticancer human tumor 855422-203-R-J1-PDC cell line growth inhibition [POLQ];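 further: spheroids exposed to compounds for seven days before readout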
- assay-context: second compound 3.16 µM; first compound 0.1 µM; active compounds read low
readout-kind: viability, T/C (%)
Give just the number in %; leave the unit off.

Task: API: value(readout=viability, T/C, system=855422-203-R-J1-PDC complex spheroid viability) for record Nc1ccn(C2OC(CO)C(O)C2(F)F)c(=O)n1 (stereo not given) + Nc1ccc(C#CCN(C(=O)Cc2ncc(C(F)(F)F)cc2C(F)(F)F)c2ccc(F)cc2)nn1
Result: 103

Task: API: value(readout=viability, T/C, system=855422-203-R-J1-PDC complex spheroid viability) for record COc1cccc(OCCCN)c1-c1cc(Nc2cnc(C#N)cn2)n[nH]1 + Nc1ccc(C#CCN(C(=O)Cc2ncc(C(F)(F)F)cc2C(F)(F)F)c2ccc(F)cc2)nn1
Result: 15.9

Task: API: value(readout=viability, T/C, system=855422-203-R-J1-PDC complex spheroid viability) for record CC1COCCN1c1cc(C2(O)CC3CCC(C2)O3)c2cnn(-c3ccn[nH]3)c2n1 (stereo not given) + COC1C(OC(N)=O)C(O)C(Oc2ccc3c(O)c(NC(=O)c4ccc(O)c(CC=C(C)C)c4)c(=O)oc3c2C)OC1(C)C
Result: 48.2

Task: API: value(readout=viability, T/C, system=855422-203-R-J1-PDC complex spheroid viability) for record COc1cc2cc(C(=O)CCC(=O)O)sc2cc1OC + Nc1ccc(C#CCN(C(=O)Cc2ncc(C(F)(F)F)cc2C(F)(F)F)c2ccc(F)cc2)nn1
Result: 111

Task: API: value(readout=viability, T/C, system=855422-203-R-J1-PDC complex spheroid viability) for record COc1cccc2c1C(=O)c1c(O)c3c(c(O)c1C2=O)CC(O)(C(=O)CO)CC3OC1CC(N)C(O)C(C)O1 (stereo not given) + COC1C(OC(N)=O)C(O)C(Oc2ccc3c(O)c(NC(=O)c4ccc(O)c(CC=C(C)C)c4)c(=O)oc3c2C)OC1(C)C
Result: 10.4

Ref: PubChem BioAssay AID1963838
